Provide the reported logTGI of each item.
tested on: NSCLC; test: Cytostatic effect on human non-small cell lung carcinoma tumor cell lines; assay type: functional
Give bare numbers, in log M.

Recorded logTGI, per entry:
| Compound | Experimental target | Endpoint value |
| --- | --- | --- |
| COc1cc2c(/C=C3/C(=O)N(C)c4ccccc43)c(Cl)[nH]c2cc1C | NSCLC | -5 |
| CC[C@]1(O)C[C@H]2CN(CCc3c([nH]c4ccccc34)[C@@](C(=O)OC)(c3cc4c(cc3OC)N(C=O)[C@H]3[C@@](O)(C(=O)OC)[C@H](OC(C)=O)[C@]5(CC)C=CCN6CC[C@]43[C@@H]65)C2)C1.O=S(=O)(O)O [VINCRISTINE SULFATE] | NSCLC | -4.8 |

The record that follows has no logTGI shown yet.
For the compound "COc1ccc2c(c1)/C(=C\c1c(Cl)[nH]c3cc(C)c(OC)cc13)C(=O)N2" , give its reported logTGI.
-4.8

Reference for the values: ChEMBL document CHEMBL1135474
